target: VEGFR2 (Homo sapiens); construct: host or cells: HUVEC; experiment: VEGFR2 Phospho ELISA assay in HUVEC, VEGF stimulated; format: cell-based; conditions: 1 hour compound, 50 ng/mL VEGF 10 minutes
Sequence (P35968 20-1356): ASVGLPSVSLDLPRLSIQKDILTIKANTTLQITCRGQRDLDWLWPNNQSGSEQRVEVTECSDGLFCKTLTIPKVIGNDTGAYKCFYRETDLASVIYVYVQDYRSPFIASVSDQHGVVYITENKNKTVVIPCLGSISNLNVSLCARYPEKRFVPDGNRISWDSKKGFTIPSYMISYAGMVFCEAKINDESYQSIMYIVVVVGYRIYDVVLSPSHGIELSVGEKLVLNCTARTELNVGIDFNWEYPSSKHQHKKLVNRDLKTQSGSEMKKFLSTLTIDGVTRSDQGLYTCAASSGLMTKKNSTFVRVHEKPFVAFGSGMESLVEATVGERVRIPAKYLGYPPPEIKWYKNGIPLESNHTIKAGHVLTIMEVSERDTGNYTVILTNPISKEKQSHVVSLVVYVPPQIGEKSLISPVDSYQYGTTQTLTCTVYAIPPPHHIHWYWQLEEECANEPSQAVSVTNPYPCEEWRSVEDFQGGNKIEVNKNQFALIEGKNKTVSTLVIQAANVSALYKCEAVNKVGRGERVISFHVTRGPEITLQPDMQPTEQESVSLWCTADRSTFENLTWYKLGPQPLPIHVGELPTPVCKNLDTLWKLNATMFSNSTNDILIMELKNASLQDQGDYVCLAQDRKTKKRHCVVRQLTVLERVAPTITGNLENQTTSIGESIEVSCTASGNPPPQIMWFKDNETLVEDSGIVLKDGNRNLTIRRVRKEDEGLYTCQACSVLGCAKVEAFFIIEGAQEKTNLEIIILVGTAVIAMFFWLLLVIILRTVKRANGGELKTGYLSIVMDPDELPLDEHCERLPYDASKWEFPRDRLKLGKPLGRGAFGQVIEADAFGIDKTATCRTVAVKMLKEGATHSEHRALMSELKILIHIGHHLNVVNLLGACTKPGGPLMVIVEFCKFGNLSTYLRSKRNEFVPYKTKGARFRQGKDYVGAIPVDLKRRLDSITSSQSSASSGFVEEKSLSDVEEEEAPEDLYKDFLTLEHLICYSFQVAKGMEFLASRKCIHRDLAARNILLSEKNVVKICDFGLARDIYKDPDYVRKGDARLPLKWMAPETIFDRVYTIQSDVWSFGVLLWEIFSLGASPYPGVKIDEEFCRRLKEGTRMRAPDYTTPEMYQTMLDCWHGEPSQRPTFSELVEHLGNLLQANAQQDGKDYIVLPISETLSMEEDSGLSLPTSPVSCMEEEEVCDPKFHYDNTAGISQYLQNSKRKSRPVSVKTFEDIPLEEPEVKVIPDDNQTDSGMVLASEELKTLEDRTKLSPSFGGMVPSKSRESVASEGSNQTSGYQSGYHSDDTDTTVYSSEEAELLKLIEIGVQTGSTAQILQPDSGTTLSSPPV
metric: IC50

Below are worked cases with known answers.
IC50 of `Cc1cnc(Nc2ccc(C3CCNCC3)nc2)nc1CCc1ccccc1CC(N)=O` on VEGFR2 (Homo sapiens)? > 10000 nM

And what about the compound `Cc1cnc(Nc2cccnc2)nc1CCc1ccccc1CC(N)=O` ? > 10000 nM

Now consider a different compound.
Give IC50 (VEGFR2 (Homo sapiens)) of the following compound: `Cc1cnc(Nc2cnn(C3CCNCC3)c2)nc1CCc1ccccc1CC(N)=O` > 10000 nM
